Recorded values, source the NIST ThermoML archive (doi:10.1016/j.jct.2013.10.017).

experiment: activity coefficient (dimensionless); of the first substance listed, at infinite dilution; xn = mol fraction of the nth substance listed; settings: 308.15 K; 100 kPa; Liquid; Chromatography; x1 = 0
Respond with Y for activity coefficient values of 70 and above, N for values below.

[
  {
    "molecule": "C=CCCC [1-pentene] + CCn1cc[n+](C)c1.COCCOCCOS(=O)(=O)[O-]",
    "categoryLabel": "N"
  },
  {
    "molecule": "c1ccccc1 [benzene] + CCn1cc[n+](C)c1.COCCOCCOS(=O)(=O)[O-]",
    "categoryLabel": "N"
  },
  {
    "molecule": "CCCCCC [hexane] + CCn1cc[n+](C)c1.COCCOCCOS(=O)(=O)[O-]",
    "categoryLabel": "Y"
  }
]

We now examine a further molecule.
q: Quick check: does C#CCCCCC [1-heptyne] + CCn1cc[n+](C)c1.COCCOCCOS(=O)(=O)[O-] have activity coefficient greater than or equal to 70?
a: N

----------
# activity coefficient per record follows
assay: activity coefficient (dimensionless); of the first substance listed, at infinite dilution; xn = mol fraction of the nth substance listed; details: 313.15 K; 100 kPa; Liquid; Chromatography; x1 = 0
Give the value as a plain number.

Study these solved cases before continuing.
[
  {
    "molecule": "C#CCCCC [1-hexyne] + CCn1cc[n+](C)c1.COCCOCCOS(=O)(=O)[O-]",
    "observedResult": 6.22
  },
  {
    "molecule": "C1CCCCC1 [cyclohexane] + CCn1cc[n+](C)c1.COCCOCCOS(=O)(=O)[O-]",
    "observedResult": 45
  },
  {
    "molecule": "CCCCCCCC [octane] + CCn1cc[n+](C)c1.COCCOCCOS(=O)(=O)[O-]",
    "observedResult": 216
  },
  {
    "molecule": "CCO [ethanol] + CCn1cc[n+](C)c1.COCCOCCOS(=O)(=O)[O-]",
    "observedResult": 0.705
  }
]

q: Quick one: activity coefficient of C=CCCCCC [1-heptene] + CCn1cc[n+](C)c1.COCCOCCOS(=O)(=O)[O-] ?
a: 71.7

----------
assay: activity coefficient (dimensionless); of the first substance listed, at infinite dilution; xn = mol fraction of the nth substance listed; settings: 333.15 K; 100 kPa; Liquid; Chromatography; x1 = 0
Respond with yes (1) for activity coefficient values of 20 and above, no (0) for values below.

# count of solved cases: 4
[
  {
    "compound": "Cc1ccccc1 [toluene] + CCn1cc[n+](C)c1.COCCOCCOS(=O)(=O)[O-]",
    "categoryLabel": "no (0)"
  },
  {
    "compound": "CCO [ethanol] + CCn1cc[n+](C)c1.COCCOCCOS(=O)(=O)[O-]",
    "categoryLabel": "no (0)"
  },
  {
    "compound": "C=CCCCCCC [oct-1-ene] + CCn1cc[n+](C)c1.COCCOCCOS(=O)(=O)[O-]",
    "categoryLabel": "yes (1)"
  },
  {
    "compound": "c1ccccc1 [benzene] + CCn1cc[n+](C)c1.COCCOCCOS(=O)(=O)[O-]",
    "categoryLabel": "no (0)"
  }
]

We now examine a further compound.
q: Quick check: does C#CCCC [1-pentyne] + CCn1cc[n+](C)c1.COCCOCCOS(=O)(=O)[O-] have activity coefficient greater than or equal to 20?
a: no (0)

----------
test: activity coefficient (dimensionless); of the first substance listed, at infinite dilution; xn = mol fraction of the nth substance listed; settings: 308.15 K; 100 kPa; Liquid; Chromatography; x1 = 0
assayReadout: activity coefficient
Give the value as a plain number.

[
  {
    "compound": "C1CCCCCCC1 [cyclooctane] + CCn1cc[n+](C)c1.COCCOCCOS(=O)(=O)[O-]",
    "activity coefficient": 82.6
  },
  {
    "compound": "C#CCCCCCCC [1-nonyne] + CCn1cc[n+](C)c1.COCCOCCOS(=O)(=O)[O-]",
    "activity coefficient": 23.9
  },
  {
    "compound": "CCCCCCCCC [nonane] + CCn1cc[n+](C)c1.COCCOCCOS(=O)(=O)[O-]",
    "activity coefficient": 292
  }
]

Continue with the next compound.
q: Quick one: activity coefficient of C1CCCCCC1 [cycloheptane] + CCn1cc[n+](C)c1.COCCOCCOS(=O)(=O)[O-] ?
a: 60.3

----------
assay: activity coefficient (dimensionless); of the first substance listed, at infinite dilution; xn = mol fraction of the nth substance listed; conditions: 333.15 K; 100 kPa; Liquid; Chromatography; x1 = 0
# activity coefficient per record follows
Give the value as a plain number.

[
  {
    "compound": "C=CCCCCCCC [1-nonene] + CCn1cc[n+](C)c1.COCCOCCOS(=O)(=O)[O-]",
    "activity coefficient": 149
  },
  {
    "compound": "CC(C)=O [acetone] + CCn1cc[n+](C)c1.COCCOCCOS(=O)(=O)[O-]",
    "activity coefficient": 1.51
  },
  {
    "compound": "CCCCCCCCC [nonane] + CCn1cc[n+](C)c1.COCCOCCOS(=O)(=O)[O-]",
    "activity coefficient": 281
  },
  {
    "compound": "C1CCCC1 [cyclopentane] + CCn1cc[n+](C)c1.COCCOCCOS(=O)(=O)[O-]",
    "activity coefficient": 22.8
  },
  {
    "compound": "C1CCCCC1 [cyclohexane] + CCn1cc[n+](C)c1.COCCOCCOS(=O)(=O)[O-]",
    "activity coefficient": 38.8
  },
  {
    "compound": "C#CCCCC [1-hexyne] + CCn1cc[n+](C)c1.COCCOCCOS(=O)(=O)[O-]",
    "activity coefficient": 6.73
  }
]

q: Quick one: activity coefficient of C#CCCCCCCC [1-nonyne] + CCn1cc[n+](C)c1.COCCOCCOS(=O)(=O)[O-] ?
a: 26.4

q: Quick one: activity coefficient of C=CCCCC [hex-1-ene] + CCn1cc[n+](C)c1.COCCOCCOS(=O)(=O)[O-] ?
a: 40.3
